- protocol.summary: Cell Based Assay (inhibition range)
- assay.context: cells printed in nM
compounds and their reported IC50
readout.name: IC50

* COC(=O)CCCCCCCCC(=O)O[C@@H]1CC[C@]2(CO2)[C@@H]([C@@]2(C)O[C@@H]2CC=C(C)C)[C@@H]1OC | 10 to 100 nM
* CO[C@@H]1[C@H](OC(=O)NC2CN3CCC2CC3)CC[C@]2(CO2)[C@H]1[C@@]1(C)O[C@@H]1CC=C(C)C (stereo partly drawn) | < 10 nM
* CO[C@@H]1[C@H](OC(=O)N[C@@H](C(=O)NCCCN(C)C)C(C)C)CC[C@]2(CO2)[C@H]1[C@@]1(C)O[C@@H]1CC=C(C)C | < 10 nM

====

- protocol.summary: Cell Based Assay (inhibition range)
- assay.context: in uM
# reported IC50; entries follow
readout.name: IC50

* COC(=O)CCCCCCCCCO[C@@H]1CC[C@]2(CO2)[C@@H]([C@@]2(C)O[C@@H]2CC=C(C)C)[C@@H]1OC | > 1 µM
* CO[C@@H]1[C@H](OC(=O)CCCCCCCCC(=O)O)CC[C@]2(CO2)[C@H]1[C@@]1(C)O[C@@H]1CCC(C)C | 0.1 to 1 µM
* CCCCCCCCCC=C1CC[C@]2(CO2)[C@@H]([C@@]2(C)O[C@@H]2CC=C(C)C)[C@@H]1OC | > 1 µM
* CO[C@@H]1C(=CC=C(C)C)CC[C@]2(CO2)[C@H]1[C@@]1(C)O[C@@H]1CC=C(C)C | > 1 µM
* CO[C@H]1[C@H]([C@@]2(C)O[C@@H]2CC=C(C)C)[C@]2(CCC1(F)F)CO2 | > 1 µM

====

- target.or.system: recombinant human MetAP2 (Homo sapiens, UniProt P50579)
- Construct: made in house; host or cells: High Five insect cells (Bac-to-Bac baculovirus)
- Sequence (P50579 whole entry): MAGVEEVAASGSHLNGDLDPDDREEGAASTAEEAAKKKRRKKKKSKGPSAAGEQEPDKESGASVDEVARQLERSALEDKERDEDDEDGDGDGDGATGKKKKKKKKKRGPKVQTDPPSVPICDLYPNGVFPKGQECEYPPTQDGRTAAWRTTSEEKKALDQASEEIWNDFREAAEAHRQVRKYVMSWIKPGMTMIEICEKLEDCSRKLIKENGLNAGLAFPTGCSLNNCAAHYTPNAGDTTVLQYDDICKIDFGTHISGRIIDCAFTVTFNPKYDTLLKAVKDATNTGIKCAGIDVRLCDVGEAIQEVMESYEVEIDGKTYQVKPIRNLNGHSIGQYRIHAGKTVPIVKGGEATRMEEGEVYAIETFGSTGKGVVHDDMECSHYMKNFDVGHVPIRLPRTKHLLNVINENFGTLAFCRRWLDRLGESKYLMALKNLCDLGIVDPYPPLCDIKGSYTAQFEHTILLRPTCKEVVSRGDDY
- protocol.summary: MetAP2 enzyme assay (inhibition of recombinant MetAP2, Met-Gly-Met-Met substrate)
- Assay type: biochemical
- assay.context: 2 hr, 50 nM; read-out: MetAP2 Enzyme Assay 2 hr 50 nM
readout.name: inhibition at 0.05 µM (%)

• CCCC/C=C/C[C@H]1O[C@]1(C)[C@H]1[C@H](OC)[C@H](O)CC[C@]12CO2 = 0
• COC(=O)CCCCCCCCCO[C@@H]1CC[C@]2(CO2)[C@@H]([C@@]2(C)O[C@@H]2CC=C(C)C)[C@@H]1OC = 0
• CO[C@@H]1C(=O)CC[C@@](C)(O)[C@H]1[C@@]1(C)O[C@@H]1CCC(C)C = 0
• CO[C@@H]1[C@H](OC(=O)CCCCCCCCC(=O)O)CC[C@]2(CO2)[C@H]1[C@@]1(C)O[C@@H]1CCC(C)C = 35
• CO[C@@H]1C(=CC=C(C)C)CC[C@]2(CO2)[C@H]1[C@@]1(C)O[C@@H]1CC=C(C)C = 0
• CCCCCCCCCCC(=O)O[C@@H]1CC[C@]2(CO2)[C@@H]([C@@]2(C)O[C@@H]2CC=C(C)C)[C@@H]1OC = 5
• COC(=O)CCCCCCCCCO[C@H]1CC[C@]2(CO2)[C@@H]([C@@]2(C)O[C@@H]2CC=C(C)C)[C@@H]1OC = 0
• C=C1CC[C@]2(CO2)[C@@H]([C@@]2(C)O[C@@H]2CC=C(C)C)[C@@H]1OC = 32
• CO[C@@H]1C(=O)CC[C@]2(CO2)[C@H]1[C@@]1(C)O[C@@H]1CC=C(C)C [Example 8, fumagillin ketone] = 65
• C=C1CC[C@]2(CO2)[C@@H]([C@@]2(C)O[C@@H]2C/C=C/CCCC)[C@@H]1OC = 0
• CCCCCCCC/C=C\CCCCCCCC(=O)O[C@@H]1CC[C@]2(CO2)[C@@H]([C@@]2(C)O[C@@H]2CC=C(C)C)[C@@H]1OC = 0
• CCCCCCCCCCS[C@@H]1CC[C@]2(CO2)[C@@H]([C@@]2(C)O[C@@H]2CC=C(C)C)[C@@H]1OC = 0
• CCCC/C=C/C[C@H]1O[C@]1(C)[C@H]1[C@H](OC)C(=O)CC[C@]12CO2 = 40
• CO[C@@H]1C(=O)C(C)C[C@]2(CO2)C1[C@@]1(C)O[C@@H]1CC=C(C)C (stereo partly drawn) = 0
• CO[C@@H]1C(=O)CC[C@]2(CO2)[C@H]1C1(C)O[C@@H]1CCC(C)C (stereo in doubt) = 0
• CO[C@@H]1[C@H](OC(=O)CCCCCCCCC(=O)O)CC[C@]2(CO2)[C@H]1[C@@]1(C)O[C@@H]1CC=C(C)C = 30
• CO[C@H]1[C@H]([C@@]2(C)O[C@@H]2CC=C(C)C)[C@]2(CCC1(F)F)CO2 = 44
• CO[C@@H]1C(=O)CC[C@]2(CO2)[C@H]1[C@@]1(C)O[C@@H]1CC=C(C)C [Example 51] = 44
• CCCCCCCCCC=C1CC[C@]2(CO2)[C@@H]([C@@]2(C)O[C@@H]2CC=C(C)C)[C@@H]1OC = 0
• COC(=O)CCCCCCCCC(=O)O[C@@H]1CC[C@]2(CO2)[C@@H]([C@@]2(C)O[C@@H]2CC=C(C)C)[C@@H]1OC = 58
• CO[C@@H]1[C@@H](F)CC[C@]2(CO2)[C@H]1[C@@]1(C)O[C@@H]1CC=C(C)C = 28
• CO[C@@H]1C(C)CC[C@]2(CO2)[C@H]1[C@@]1(C)O[C@@H]1CCC(C)C (stereo partly drawn) = 0
• CO[C@@H]1[C@H](NCCCCCCCCCC(=O)O)CC[C@]2(CO2)[C@H]1[C@@]1(C)O[C@@H]1CC=C(C)C = 0
• CO[C@@H]1[C@H](OC(=O)N[C@@H](C(N)=O)C(C)C)CC[C@]2(CO2)[C@H]1[C@@]1(C)O[C@@H]1CC=C(C)C = 90

====

# inhibition at 0.05 µM listing for each entry below
- target.or.system: recombinant human MetAP2 (Homo sapiens)
- Construct: made in house; host or cells: High Five insect cells (Bac-to-Bac baculovirus)
- protocol.summary: MetAP2 enzyme assay (inhibition of recombinant MetAP2, Met-Gly-Met-Met substrate)
- Type: biochemical
- assay.context: 1 hr, 50 nM; read-out: MetAP2 Enzyme Assay 1 hr 50 nM
readout.name: inhibition at 0.05 µM (%)

- CCCC/C=C/C[C@H]1O[C@]1(C)[C@H]1[C@H](OC)[C@H](O)CC[C@]12CO2: 0
- CO[C@@H]1C(=O)CC[C@]2(CO2)[C@H]1C1(C)O[C@@H]1CCC(C)C (stereo in doubt): 0
- CO[C@@H]1C(C)CC[C@]2(CO2)[C@H]1[C@@]1(C)O[C@@H]1CCC(C)C (some centres unmarked): 0
- COC(=O)CCCCCCCCCO[C@H]1CC[C@]2(CO2)[C@@H]([C@@]2(C)O[C@@H]2CC=C(C)C)[C@@H]1OC: 0
- CO[C@@H]1C(=CC=C(C)C)CC[C@]2(CO2)[C@H]1[C@@]1(C)O[C@@H]1CC=C(C)C: 0
- CCCCCCCCCCS[C@@H]1CC[C@]2(CO2)[C@@H]([C@@]2(C)O[C@@H]2CC=C(C)C)[C@@H]1OC: 0
- CCCCCCCCCC=C1CC[C@]2(CO2)[C@@H]([C@@]2(C)O[C@@H]2CC=C(C)C)[C@@H]1OC: 0
- CO[C@@H]1[C@H](NCCCCCCCCCC(=O)O)CC[C@]2(CO2)[C@H]1[C@@]1(C)O[C@@H]1CC=C(C)C: 0
- CO[C@H]1[C@H]([C@@]2(C)O[C@@H]2CC=C(C)C)[C@]2(CCC1(F)F)CO2: 29
- CO[C@@H]1[C@H](OC(=O)CCCCCCCCC(=O)O)CC[C@]2(CO2)[C@H]1[C@@]1(C)O[C@@H]1CC=C(C)C: 15
- CO[C@@H]1[C@H](OC(=O)CCCCCCCCC(=O)O)CC[C@]2(CO2)[C@H]1[C@@]1(C)O[C@@H]1CCC(C)C: 12
- CCCCCCCC/C=C\CCCCCCCC(=O)O[C@@H]1CC[C@]2(CO2)[C@@H]([C@@]2(C)O[C@@H]2CC=C(C)C)[C@@H]1OC: 0
- CO[C@@H]1[C@@H](F)CC[C@]2(CO2)[C@H]1[C@@]1(C)O[C@@H]1CC=C(C)C: 23
- CO[C@@H]1C(=O)CC[C@]2(CO2)[C@H]1[C@@]1(C)O[C@@H]1CC=C(C)C [Example 8, fumagillin ketone]: 46

====

- protocol.summary: Cell Based Assay (inhibition range)
- assay.context: in uM
readout.name: IC50

• C=C1CC[C@]2(CO2)[C@@H]([C@@]2(C)O[C@@H]2C/C=C/CCCC)[C@@H]1OC = > 1 µM
• C=C1CC[C@]2(CO2)[C@@H]([C@@]2(C)O[C@@H]2CC=C(C)C)[C@@H]1OC = 0.1 to 1 µM
• CCCCCCCCCCC(=O)O[C@@H]1CC[C@]2(CO2)[C@@H]([C@@]2(C)O[C@@H]2CC=C(C)C)[C@@H]1OC = 0.1 to 1 µM
• CCCCCCCCCCS[C@@H]1CC[C@]2(CO2)[C@@H]([C@@]2(C)O[C@@H]2CC=C(C)C)[C@@H]1OC = > 1 µM
• COC(=O)CCCCCCCCCO[C@H]1CC[C@]2(CO2)[C@@H]([C@@]2(C)O[C@@H]2CC=C(C)C)[C@@H]1OC = > 1 µM
• CO[C@@H]1[C@H](NCCCCCCCCCC(=O)O)CC[C@]2(CO2)[C@H]1[C@@]1(C)O[C@@H]1CC=C(C)C = > 1 µM
• CCCCCCCC/C=C\CCCCCCCC(=O)O[C@@H]1CC[C@]2(CO2)[C@@H]([C@@]2(C)O[C@@H]2CC=C(C)C)[C@@H]1OC = > 1 µM

Cited source for all entries: patent US10259796B2
